Measured GI50 values are reported for all entries that follow.
# Test system: NCI-H522
# PROTOCOL: NCI tumour cell line growth inhibition, 48 h
Calls of active or inactive are those of the source. Rule as the data show it: active = GI50 up to about 1.1 µM and inactive = higher.
QUANTITY NAME: GI50

                                   compound  quantity_name         assay_result
0  CCCCCCCCCCCCCCCCCC(=O)OCC(COC1OC(CS(=O)(=O)O)C(O)C(O)C1O)OC(=O)CCCCCCCCCCCCCCCCC (stereo not given)           GI50  > 100 µM (inactive)
1  Nc1ccccc1[S+]([O-])c1ccccc1 (stereo not given)           GI50  > 100 µM (inactive)
2  CC12C(=O)N(CCN)C(=O)C1C1c3ccccc3C2c2ccccc21 (stereo not given)           GI50  > 100 µM (inactive)
3  CCOc1ccc(NC(=O)C(=O)CC(=O)c2c[n+]([O-])c3cc(C)c(C)cc3[n+]2[O-])cc1           GI50  > 100 µM (inactive)
4  O=C1OC[C@@H]2Cc3c([nH]c4ccccc34)[C@@H](c3cc(O)c(O)c(O)c3)N12           GI50   5.09 µM (inactive)

* * *

# Tested on: ACHN
# PROTOCOL: NCI tumour cell line growth inhibition, 48 h
Active and inactive are the calls of the source. No stated cut-off is given here; in the data, active = GI50 up to about 1.1 µM and inactive = higher.
Labels: YES for active, NO for inactive

In [3]: df
Out[3]:
                                   molecule  category
0  O=C(Cn1c2ccc(Br)cc2c2nc3ccccc3nc21)NNC(=O)NC1CCCCC1        NO
1  CC1CC/C(=C\c2ccc(F)cc2)C2=C1C(c1ccc(F)cc1)NC(=S)N2 (stereo not given)        NO
2  Nc1nc(N)c2ncn(CC(CO)CC(c3ccccc3)P(=O)(O)O)c2n1 (stereo not given)        NO
3   O=c1c(O)c(-c2ccc(O)c(O)c2)oc2cc(O)ccc12        NO
4  COc1cc([C@@H]2c3cc4c(cc3[C@@H](NCc3cccc(C#N)c3)C3COC(=O)[C@@H]32)OCO4)cc(OC)c1O (stereo not given in full)       YES
5  CCOP(=O)(OCC)OC1c2[nH]ccc2-c2cc(C(=O)OC)[nH]c2C1OC (stereo not given)        NO
6          C/C(=N\NC(=O)c1ccncc1)c1ccccc1Cl        NO
7  O=C1/C(=C/c2ccccc2)CN(C(=O)Oc2ccccc2)C/C1=C\c1ccccc1        NO
8           CSC1=Nc2ccccc2-c2nc3ccccc3cc2C1        NO
9                  Cc1cc(NN)nc2[nH]nc(N)c12        NO

* * *

# Test system: KM12
# PROTOCOL: NCI tumour cell line growth inhibition, 48 h
Calls of active or inactive are those of the source. Rule as the data show it: active = GI50 up to about 1.1 µM and inactive = higher. Non-standard residues stand in square brackets, D forms with d. Residues, ends and D or L forms follow the SMILES beside them. *: point of attachment. Ac5c = NC1(C(=O)O)CCCC1; Cbz = O=C(OCc1ccccc1)*; Boc = CC(C)(C)OC(=O)*; tBu = CC(C)(C)*
Labels: label 1 = active, label 0 = inactive

COMPOUND	CATEGORY
CCOC(=O)C1C(=O)CC(O)(c2ccccc2)C(C(=O)OCC)C1c1ccc(N(C)C)cc1 (stereo not given)	label 0
Nc1ccc(C(=O)N/C(=C\c2ccc3c(c2)OCO3)c2nc3c(O)nc(S)nc3[nH]2)cc1	label 0
Cc1cc2oc(-c3ccccc3)c(C)c(=O)c2c2c1OC(C)(C)S2	label 0
OC12c3ccccc3C1CCCCCCCCCC21OCCO1 (stereo not given)	label 0
COC1=C(C(=O)OC(C)(C)C)[C@]2(C)C(C(=O)OC(C)(C)C)C(OC)=C(C(=O)OC(C)(C)C)[C@]2(C)C1C(=O)OC(C)(C)C (stereo not given in full)	label 0
c1cc2c(s1)-c1sccc1C21OCCO1	label 0
CN(/N=C/c1ccccc1C(=O)O)C1=NCCCCN1	label 0
CC(C)/C(Cl)=N\OC(=O)Nc1cccc(Cl)c1	label 0
CC12C(=O)N(CCN)C(=O)C1C1c3ccccc3C2c2ccccc21 (stereo not given)	label 0
CN(C)CCCCN1CCc2c(n(C)c3ccccc23)C1=O	label 0
CCC1(c2ccc(OC)c(OC)c2)CCN2C(=O)C(O)CC21 (stereo not given)	label 0
CC[C@@H](CCCCC1CC[C@H]2CC(=O)C[C@@H]12)OC (stereo not given in full)	label 0
O=c1[nH]nc(Cc2ccccc2)n1O	label 0
COC(=O)C1(NC(=O)C(Cc2ccccc2)NC(=O)C(NC(=O)C(CCCCNC(=O)OC(C)(C)C)NC(=O)C(Cc2c[nH]c3ccccc23)NC(=O)C(Cc2ccccc2)NC(=O)OCc2ccccc2)C(C)OC(C)(C)C)CCCC1 (stereo not given) (Cbz-FWK(Boc)T(tBu)F[Ac5c]-OMe; configuration not given here)	label 0
CCOC(=O)C1C(=O)C=C(c2cc(C)ccc2O)CC1c1cccc(Cl)c1 (stereo not given)	label 0
Oc1cc(Cl)cc2cccnc12	label 0
N#Cc1c(-c2ccc(Cl)cc2)cc(-c2nc3ccccc3[nH]2)nc1N	label 0
O=C1OC[C@@H]2Cc3c([nH]c4ccccc34)[C@@H](c3cc(O)c(O)c(O)c3)N12	label 0
CC(=O)C1C(=O)C(=O)N(c2ccc([N+](=O)[O-])cc2)C1=O (stereo not given)	label 0
CC1=CC2=C(C)C3(CC3)[C@@](C)(O)C(=O)C2=C1	label 1

* * *

Measured GI50 values are reported for all entries that follow.
# Test system: OVCAR-8
# PROTOCOL: NCI tumour cell line growth inhibition, 48 h
The source made the active and inactive calls. No stated cut-off is given here; in the data, active = GI50 up to about 1.1 µM and inactive = higher.
QUANTITY NAME: GI50

>>> print(df.to_string())
                                    compound  quantity_name         assay_result
 0  CCCCCCCCCCCCCP(=O)(NCC(N)=O)OCC (stereo unspecified)           GI50   21.4 µM (inactive)
 1  CC(C)CC(C(N)=O)C(=O)NC(Cc1ccccc1)NC(=O)CNC(=O)C(C)NC(=O)C(N)Cc1ccc(O)cc1 (stereo unspecified)           GI50  > 100 µM (inactive)
 2  NC(=O)c1ccc[n+](C2=C([N-]S(=O)(=O)c3ccccc3)C(=O)c3ccccc3C2=O)c1           GI50   14.9 µM (inactive)
 3      COc1ccc(/N=c2/oc3ccccc3cc2C(N)=O)cc1           GI50   27.4 µM (inactive)
 4            O=C1Nc2ccccc2/C1=N/Nc1ccccc1Cl           GI50   20.6 µM (inactive)
 5  O=[N+]([O-])c1ccc(-c2cn(-c3ccc(Cl)cc3)cn2)cc1           GI50   36.6 µM (inactive)
 6  CCOC(=O)C(C(=O)OCC)P(=S)(S)c1ccccc1 (stereo unspecified)           GI50  > 100 µM (inactive)
 7    COc1ccc2nc3n(c2c1)CCc1cc(OC)c(OC)cc1-3           GI50   41.6 µM (inactive)
 8          Nc1ccc2c(=O)cc(-c3cccs3)[nH]c2n1           GI50   2.86 µM (inactive)
 9  CC(=O)C1C(=O)C(=O)N(c2ccc([N+](=O)[O-])cc2)C1=O (stereo unspecified)           GI50  > 100 µM (inactive)
10  O=C(Cn1c2ccc(Br)cc2c2nc3ccccc3nc21)NNC(=O)NC1CCCCC1           GI50   35.9 µM (inactive)

* * *

# System: SK-MEL-5
# PROTOCOL: NCI tumour cell line growth inhibition, 48 h
Active and inactive are the calls of the source. Cut-off read from the data, not from the text of the source: active = GI50 up to about 1.1 µM and inactive = higher.
Labels: YES for active, NO for inactive

COMPOUND	CATEGORY
COc1ccc(-c2oc3cc(OC(C)=O)cc(OC(C)=O)c3c(=O)c2OC)cc1	NO
CCOC(=O)C1C(=O)CC(O)(c2ccccc2)C(C(=O)OCC)C1c1ccc(N(C)C)cc1 (stereo not given)	NO
CCn1c(CCl)nc2c1C(=O)c1ccccc1C2=O	YES
CCOP(=O)(OCC)OC1c2[nH]ccc2-c2cc(C(=O)OC)[nH]c2C1OC (stereo not given)	NO
COc1cc(/C=C(\C#N)c2nc3ccccc3o2)ccc1O	NO
O=C(Nc1ccc(Cl)cc1)c1cc(S(=O)(=O)Nc2n[nH]c(=O)[nH]2)c(SSc2cc(Cl)c(C(=O)Nc3ccc(Cl)cc3)cc2S(=O)(=O)Nc2n[nH]c(=O)[nH]2)cc1Cl	NO
CC1CC[C@@]2(OC1)OC1C[C@H]3[C@@H]4CC[C@H]5CC(OC6OC(CO)C(OC7OC(CO)C(O)C(O)C7O)C(O)C6O)CCC5(C)[C@H]4CCC3(C)C1[C@@H]2C (stereo not given in full)	NO
CCc1cccc(C)c1NC(=O)CC1C(=O)Nc2ccccc2S1(=O)=O (stereo not given)	NO
O=C1c2ccccc2CC12Cc1cc3c(cc1C2)CCC3	NO
COC1=C(N)C(=O)c2nc(C)ccc2C1=O	NO
O=S(=O)(Cc1nc2ccccc2s1)c1nc2ccccc2s1	NO
Nc1ccc(C(=O)N/C(=C\c2ccc3c(c2)OCO3)c2nc3c(O)nc(S)nc3[nH]2)cc1	NO
CCC(C(=O)c1ccc(OC)c(OC)c1)N(C(=O)C(F)(F)F)C(C)c1ccccc1 (stereo not given)	NO
COc1ccc(S(=O)(=O)NNS(C)(=O)=O)cc1OC	NO
CC(=O)OC1(C#N)CC2OC1C1C2N=NN1C(=O)OC(C)(C)C (stereo not given)	NO
NC12Oc3cc(O)cc(O)c3C1(c1ccc(Cl)cc1)c1c(O)cc(O)cc1O2 (stereo not given)	NO
CC(=O)OCC1OC(NC(=O)N(CCCl)N=O)C(OC(C)=O)C(OC(C)=O)C1OC(C)=O (stereo not given)	NO
COc1cc2c(cc1OC)C1C(O)C(OC)C(Br)C3(Br)CCN(C2)C13 (stereo not given)	NO
COc1ccc2ccccc2c1/C=C/C(=O)c1ccccc1	NO
C=C(CN(C)C)C(=O)c1ccccc1OC	NO
